Assign Residual ratio to each entry below.
- procedure summary: Solution stability test (residual ratio and generation of active form in buffers of pH 2.0 to 9.0)
- Format: physicochemical
- cond: pH9.0 buffer, 25° C., 25 umol/L, 9 hr
Structures can show the parent of a compound that is named as a salt.
Express it in %; write the number only.

Look at this molecule and give its reported Residual ratio. Cc1cc(OC(=O)NCCNCC(=O)O)c2ccccc2c1OC(=O)NCCNCC(=O)O [Example 2, dihydrochloride] 0.0

Look at this molecule and give its reported Residual ratio. C[C@H]1COc2c1c(OC(=O)NCCCNCC(=O)O)c(OC(=O)NCCCNCC(=O)O)c1c3c(ccc21)C(C)(C)CCC3 [Example 13, dihydrochloride] 99.3

Look at this molecule and give its reported Residual ratio. CC(=O)c1cc2c(O)c3c(O)cccc3c(OC(=O)NCCCN)c2o1 [Reference Example 9, hydrochloride] 0.0

Look at this molecule and give its reported Residual ratio. CN1CC[C@H](c2c(OC(=O)N(C)CCN)cc(O)c3c(=O)cc(-c4ccccc4Cl)oc23)[C@H](O)C1 [Example 8] 0.1

Look at this molecule and give its reported Residual ratio. NCCCNC(=O)Oc1c(OC(=O)NCCCN)c(-c2ccccc2)c2c(c1-c1ccccc1)OCO2 [Example 6] 0.7

Look at this molecule and give its reported Residual ratio. CC(=O)c1cc2c(OC(=O)NCCNCC(=O)O)c3ccsc3c(OC(=O)NCCNCC(=O)O)c2o1 [Example 1, dihydrochloride] 0.0

Attribution: patent US20200207782A1
